test-target: Angiotensin-converting enzyme (Oryctolagus cuniculus)
Sequence (P12822 whole entry): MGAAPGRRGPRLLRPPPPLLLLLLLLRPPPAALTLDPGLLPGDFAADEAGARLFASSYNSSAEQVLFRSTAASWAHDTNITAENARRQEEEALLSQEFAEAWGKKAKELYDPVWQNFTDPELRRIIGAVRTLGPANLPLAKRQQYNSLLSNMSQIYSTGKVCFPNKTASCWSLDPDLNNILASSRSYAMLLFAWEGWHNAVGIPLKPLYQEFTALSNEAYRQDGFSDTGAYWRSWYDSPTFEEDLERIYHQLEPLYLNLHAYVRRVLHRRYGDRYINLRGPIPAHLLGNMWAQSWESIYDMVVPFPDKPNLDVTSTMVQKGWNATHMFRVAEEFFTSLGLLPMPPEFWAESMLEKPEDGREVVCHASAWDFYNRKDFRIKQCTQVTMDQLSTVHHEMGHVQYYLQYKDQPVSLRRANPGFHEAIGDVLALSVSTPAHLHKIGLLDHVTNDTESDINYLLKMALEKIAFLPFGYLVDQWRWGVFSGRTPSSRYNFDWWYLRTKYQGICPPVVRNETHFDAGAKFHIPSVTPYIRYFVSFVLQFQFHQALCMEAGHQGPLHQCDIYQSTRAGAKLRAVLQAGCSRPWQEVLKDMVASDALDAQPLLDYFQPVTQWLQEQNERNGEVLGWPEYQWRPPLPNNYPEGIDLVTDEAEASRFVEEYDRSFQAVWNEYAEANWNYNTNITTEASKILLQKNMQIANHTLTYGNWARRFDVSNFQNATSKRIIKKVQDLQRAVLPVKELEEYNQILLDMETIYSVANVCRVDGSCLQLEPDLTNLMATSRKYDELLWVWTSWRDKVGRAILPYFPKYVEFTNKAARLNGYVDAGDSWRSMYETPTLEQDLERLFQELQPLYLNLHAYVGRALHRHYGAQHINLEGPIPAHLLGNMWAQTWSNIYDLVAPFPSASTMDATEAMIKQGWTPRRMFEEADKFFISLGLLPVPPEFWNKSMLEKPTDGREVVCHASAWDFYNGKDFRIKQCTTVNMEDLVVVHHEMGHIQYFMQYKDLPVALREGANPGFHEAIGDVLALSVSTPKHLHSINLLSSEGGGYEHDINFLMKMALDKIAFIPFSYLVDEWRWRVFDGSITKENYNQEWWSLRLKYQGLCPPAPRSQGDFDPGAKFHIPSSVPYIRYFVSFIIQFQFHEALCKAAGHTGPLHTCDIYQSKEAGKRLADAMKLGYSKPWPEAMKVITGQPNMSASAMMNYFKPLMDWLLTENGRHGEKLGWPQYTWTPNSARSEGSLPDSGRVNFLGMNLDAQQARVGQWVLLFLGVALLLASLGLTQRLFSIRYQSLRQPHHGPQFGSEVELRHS
assay-remarks: In vitro inhibition of angiotensin I converting enzyme (ACE) in rabbit lung
Format: tissue-based
quantity: pIC50
Lab note — pIC50 values are minus log10 of concentrations in M.

Input C[C@H](N[C@@H](CCc1ccccc1)C(=O)O)C(=O)N1CC2(C[C@H]1C(=O)O)Nc1cc(Cl)c(S(N)(=O)=O)cc1S(=O)(=O)N2 (stereo not given in full) . Output pIC50: 7.07

pIC50 measured on C[C@H](N[C@@H](CCc1ccccc1)C(=O)O)C(=O)N1C[C@@H](NS(=O)(=O)c2cc3c(cc2Cl)N=CNS3(=O)=O)C[C@H]1C(=O)O = 7.64

// pIC50 value for C[C@H](N[C@@H](CCc1ccccc1)C(=O)O)C(=O)N1C[C@@H](NS(=O)(=O)c2cc(S(N)(=O)=O)c(N)cc2Cl)C[C@H]1C(=O)O : 8.19

Item: C[C@H](N[C@@H](CCc1ccccc1)C(=O)O)C(=O)N1C(c2ccc(Cl)c(S(N)(=O)=O)c2)SC[C@H]1C(=O)O (stereo not given in full) | pIC50: 8.10

// sample C[C@H](N[C@@H](CCc1ccccc1)C(=O)O)C(=O)N1CC(N(C)CCC2Nc3cc(Cl)c(S(N)(=O)=O)cc3S(=O)(=O)N2)C[C@H]1C(=O)O.Cl.Cl (stereo not given in full) , its pIC50 was 7.74

----------
test-target: Angiotensin-converting enzyme (Oryctolagus cuniculus)
assay-remarks: In vitro inhibition of angiotensin I converting enzyme(ACE) in rabbit lung
Type: tissue-based
quantity: pIC50
Scale for pIC50: -log10 of concentration given in mol/L; no unit attached.

Consider C[C@H](N[C@@H](CCc1ccccc1)C(=O)O)C(=O)N1C[C@H](OCCC2Nc3cc(Cl)c(S(N)(=O)=O)cc3S(=O)(=O)N2)C[C@H]1C(=O)O (stereo partly specified) . Its measured pIC50 is 7.66
